biological target: PI3K γ (Homo sapiens); experiment: PI3 kinase phosphorylation assay (Biological Method 1), Ki γ; assay type: biochemical; settings: Table 1, compounds of formula X
Sequence (P48736 whole entry): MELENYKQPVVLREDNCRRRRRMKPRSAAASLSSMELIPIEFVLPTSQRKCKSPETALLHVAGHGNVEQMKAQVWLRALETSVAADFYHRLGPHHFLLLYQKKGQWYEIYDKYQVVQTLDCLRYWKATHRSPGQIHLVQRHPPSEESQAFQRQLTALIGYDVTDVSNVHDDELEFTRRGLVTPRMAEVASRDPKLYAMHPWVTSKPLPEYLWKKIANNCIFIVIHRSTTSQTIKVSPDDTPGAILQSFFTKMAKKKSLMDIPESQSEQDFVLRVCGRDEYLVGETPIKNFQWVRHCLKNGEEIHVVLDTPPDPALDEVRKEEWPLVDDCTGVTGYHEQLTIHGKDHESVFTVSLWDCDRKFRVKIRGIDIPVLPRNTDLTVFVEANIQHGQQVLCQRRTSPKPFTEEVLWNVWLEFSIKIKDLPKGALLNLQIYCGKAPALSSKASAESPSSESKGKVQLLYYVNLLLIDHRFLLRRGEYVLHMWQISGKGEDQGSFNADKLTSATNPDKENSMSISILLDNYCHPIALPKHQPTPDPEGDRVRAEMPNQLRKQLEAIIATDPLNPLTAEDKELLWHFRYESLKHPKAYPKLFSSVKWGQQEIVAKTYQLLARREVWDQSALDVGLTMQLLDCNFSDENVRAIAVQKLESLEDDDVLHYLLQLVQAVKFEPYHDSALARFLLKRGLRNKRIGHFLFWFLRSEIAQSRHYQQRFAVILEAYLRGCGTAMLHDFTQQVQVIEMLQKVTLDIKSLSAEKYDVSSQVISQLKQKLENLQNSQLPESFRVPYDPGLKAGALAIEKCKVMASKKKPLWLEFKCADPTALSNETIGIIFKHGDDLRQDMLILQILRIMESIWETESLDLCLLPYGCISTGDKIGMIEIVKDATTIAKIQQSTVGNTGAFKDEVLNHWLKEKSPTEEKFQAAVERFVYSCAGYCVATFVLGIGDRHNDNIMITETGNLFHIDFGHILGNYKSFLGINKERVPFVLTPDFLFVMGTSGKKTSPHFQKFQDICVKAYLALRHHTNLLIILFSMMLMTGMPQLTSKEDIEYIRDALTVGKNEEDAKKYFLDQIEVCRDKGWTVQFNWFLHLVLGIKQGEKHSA
reported endpoint: Ki (µM)

CC(C)n1nnc(CCNC(=O)Nc2cn3cc(-c4cncc(OC5CCOCC5)c4)ccc3n2)n1 [drawing 39]; 0.147
COCCOCCOc1cncc(-c2ccc3nc(NC(=O)NCCc4nnn(C(C)C)n4)cn3c2)c1 [drawing 47]; 0.268
O=C(NCCn1nnc(C2CC2)n1)Nc1cn2cc(-c3cncc(C(F)(F)F)c3)ccc2n1 [drawing 67]; 0.028
CCn1nnc(CCNC(=O)Nc2cn3cc(-c4cc(Cl)cc(OC)c4)ccc3n2)n1; 0.204
